# protocolDescription: small-molecule binders of probe aLefty1, primary screen, biochemical, small-molecule microarray, 635/667 nm fluorescence (AID 1153);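 also: score merges spot fluorescence with signal-to-noise ratio from the scanned slide images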
# assaySetup: higher = more signal
Param threshold (0.1) applies to composite z-score; output t when value >= threshold, f when value < threshold.

C=C[C@H](C)[C@H](OC(=O)Nc1ccc(OC)cc1)c1ccc(OCCO)cc1; t
Cc1cccc([C@H]2C[C@H]3C(Br)=C[C@@H]2C(=O)[C@]32CO2)c1; f
CO[C@H]1O[C@H](CO)[C@@H](OC(=O)Nc2ccc(C#N)cc2)[C@@H]2OC(=O)[C@H](Cc3cccc(Br)c3)C/C=C/C[C@@H](Cc3cccc(Br)c3)C(=O)O[C@@H]12; t
COC(=O)[C@@]1(Cc2ccc(F)cc2)[C@H]2c3cc(C(=O)N4CCCC4)n(C)c3C[C@H]2CN1C(=O)c1ccccc1; t
COc1ccc([Si](C)(C)[C@H]2[C@H](CC(=O)N3CCC[C@H]3CO)O[C@@]3(C(=O)N(Cc4ccc(N5CCC5=O)cc4)c4ccccc43)[C@@H]2C)cc1; t
COC(=O)[C@@]1(Cc2ccc(OC)cc2)[C@H]2c3cc(C(=O)N4CCCC4)n(Cc4ccc(OC(F)(F)F)cc4)c3C[C@H]2CN1C(=O)c1ccccc1; f
COc1cc2c(cc1O)C(c1cccs1)N(Cc1sc3ccccc3c1Cl)CC2 (configuration not stated); f

---

# protocolDescription: P. aeruginosa biofilm formation inhibitors, primary screen, PAO1 strain, BacTiter-Glo luminescence, LB-PBS (AID 1144)
# assaySetup: 12 h, higher = more signal
Use -0.3 as the dividing line for z-score, with the line itself on the t side and lower values as f.

C=C(CCCC)C(=O)CC[C@H](OC(C)=O)c1ccc(OCCO)cc1; f
COC(=O)[C@@]1(Cc2ccc(OC)cc2)[C@H]2c3cc(C(=O)N4CCCC4)n(Cc4ccc(S(C)(=O)=O)cc4)c3C[C@H]2CN1C(=O)c1ccccc1; t
Cc1ccc(S[C@]2(C(=O)NCc3ccccc3)CC(=O)N(Cc3cc(C(F)(F)F)cc(C(F)(F)F)c3)[C@@H]2c2ccc(CO)cc2I)cc1; f
O=C1OCC=C[C@H]2OC34C=CCN(c5ccc6ccccc6c5)C(=O)[C@H]3N(CCCCCO)C(=O)[C@@H]4[C@@H]12 (some centres not stated); t
C[C@@H]1ON(c2ccc(I)cc2)[C@H](c2ccc(OC(=O)OC(C)(C)C)cc2)[C@H]1C(=O)N1C(=O)OC[C@H]1Cc1ccccc1; f
CC(C)C(=C=CC[C@@H](O)c1cccc(OCCO)c1)C[C@@H](O)COCc1ccccc1; t
NCCCCCNC(=O)[C@H]1C[C@H]2C(=O)N[C@@H](Cc3ccccc3)C(=O)N2[C@H]1c1ccc(O)cc1; t

---

Collected z-score values appear next to each entry.
# protocolDescription: E. coli acrAB mutant growth effects, primary screen, E. coli filamentation inducers, strain DRC39, OD650, 24 h (AID 1178);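 also: growth measured as culture turbidity by optical density at 650 nm; test concentration not given here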
# assaySetup: higher = more signal, called active from +8 up or from −8 down
Activity calls are given as the source filed them.
outcomeMeasure: z-score

CC(=O)NCCCC[C@@H]1NC(=O)[C@@H]2C[C@H](C(=O)NCCCCCCN)[C@H](c3cccc(OCCO)c3)N2C1=O; -0.0095 (inactive)
Cc1c(NC(=O)/C(C#N)=C/c2ccccc2Cl)c(=O)n(-c2ccccc2)n1C; 1.17 (inactive)
COCCOC(=O)N1C(=O)[C@@]2(c3cc(C#CC4=CCCCC4)ccc31)[C@H](c1ccc(O)cc1)N1[C@H](c3ccccc3)[C@H](c3ccccc3)OC(=O)[C@H]1[C@@H]2C(=O)NC[C@H](O)c1ccccc1; -0.396 (inactive)
C=C[C@@H](C)[C@@H](OC(=O)Nc1ccc(SC)cc1)c1ccc(OCCO)cc1; -0.68 (inactive)
COCCOC(=O)N1C(=O)[C@@]2(c3cc(C#CCCO)ccc31)[C@H](C(N)=O)[C@H]1C(=O)O[C@H](c3ccccc3)[C@H](c3ccccc3)N1[C@@H]2c1ccc(OCCO)cc1; -0.138 (inactive)
O=C1O[C@H](c2ccccc2)[C@H](c2ccccc2)N2[C@H]1[C@@H](C(=O)N1CCCCCCC1)[C@]1(C(=O)Nc3ccc(C#CC4(O)CCCCCC4)cc31)[C@H]2c1ccccc1OCCO; 0.138 (inactive)
C[C@]1(C(=O)NCC(F)(F)F)c2ccccc2C(=O)N(Cc2ccccc2)[C@H]1c1ccc(CO)cc1; 0.242 (inactive)

---

Reported composite z-score values for the following compounds.
# protocolDescription: binders of probe aFSTL3 on microarray, primary screen, stem cell growth factor project, biochemical, small-molecule microarray, fluorescence 635/667 (AID 1064);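 also: measures binding of the biotinylated anti-FSTL3 antibody to printed compounds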
# assaySetup: higher = more signal
outcomeMeasure: composite z-score

COc1ccc([Si](C)(C)[C@@H]2[C@@H](CC(=O)N3Cc4ccccc4C[C@H]3CO)O[C@]3(C(=O)N(Cc4ccc(N5CCC5=O)cc4)c4ccccc43)[C@H]2C)cc1; -0.406
COCCOC(=O)N1C(=O)[C@@]2(c3cc(C#CCCO)ccc31)[C@H](C(=O)N1CCCCCCC1)[C@H]1C(=O)O[C@H](c3ccccc3)[C@H](c3ccccc3)N1[C@@H]2c1ccccc1OCCO; 3.32
O=C1C2C=CC(C(O)c3ccco3)N(Nc3ccccc3)C2C(=O)N1c1ccccc1 (configuration not stated); 0.76
CCOC(=O)C1=CC[C@@H](c2ccccc2)N(S(=O)(=O)c2ccc(C)cc2)[C@H]1C=Cc1ccccc1; 0.162
C=C[C@@H](OC)[C@H](OC(=O)Nc1ccc(SC)cc1)c1ccc(OCCO)cc1; 0.0275
C=CCC(OC(C)=O)[C@@H]1[C@@H](N(Cc2ccc(-c3cccc(C(F)(F)F)c3)o2)C(=O)c2ccc(C)cc2)c2cc(OCCCO)ccc2N1C(=O)Cc1ccc(OC)cc1 (some centres not stated); 0.002
COCCOC(=O)N1C(=O)[C@@]2(c3cc(C#CCNC(N)=O)ccc31)[C@H](c1ccc(OCCO)cc1)N1[C@H](c3ccccc3)[C@H](c3ccccc3)OC(=O)[C@H]1[C@@H]2C(N)=O; 0.423

---

# protocolDescription: small-molecule microarray binders of probe aXIP, primary screen, biochemical, NeuroSMM set, 635/667 nm fluorescence (AID 1119);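 also: probe is the protein aXip251-270 applied at 1 µg/mL to compound-printed slides; binding of probe to printed compounds measured as 667 nm fluorescence plus signal to noise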
# assaySetup: higher = more signal, called active from +8 up or from −8 down
The source made the active and inactive calls.
outcomeMeasure: composite Z-score

CCOC(=O)C[C@H]1[C@H](OC(=O)c2ccc(-c3ccccc3)cc2)[C@@H](NC(=O)Cc2ccc(OC)cc2)c2cc(OCCCO)ccc2N1C(=O)Cc1ccc(OC)cc1; -0.263 (inactive)
C=CCN1C(=O)[C@]2(O[C@H](CCO)[C@@H]([Si](C)(C)c3ccc(OC)cc3)[C@@H]2C)c2cc(N3C(=O)COc4ccccc43)ccc21; 0.0421 (inactive)
CC1CC/C=C\[C@H]2OC34C=CCN(C(C)(C)C)C(=O)[C@H]3N(C(CO)C(C)C)C(=O)[C@@H]4C2C(=O)O1 (some centres undefined); 0.148 (inactive)
COC(=O)[C@@]1(Cc2ccc(F)cc2)[C@H]2c3cc(C(=O)N4CCCC4)n(C)c3C[C@H]2CN1C(=O)c1ccccc1; 0.929 (inactive)

---

# measuredOn: Carbonic anhydrase 2 (Homo sapiens) (UniProt P00918)
# protocolDescription: CAII small-molecule binders, profiling panel, biochemical, small-molecule microarray, Alexa647-labelled CAII (AID 1122)
# assaySetup: CAII-A647 binding fluorescence, higher = more signal
outcomeMeasure: composite z-score

C=C[C@@H](C)[C@H](O)c1ccc(OCCO)cc1; 0.799
COCCOC(=O)N1C(=O)[C@@]2(c3cc(C#CCC(C(=O)OC)C(=O)OC)ccc31)[C@H](C(=O)NC[C@H](O)c1ccccc1)[C@H]1C(=O)O[C@H](c3ccccc3)[C@H](c3ccccc3)N1[C@@H]2c1ccc(OCCO)cc1; 0.521
COc1cc2c(cc1O)C(c1cccs1)N(Cc1sc3ccccc3c1Cl)CC2 (centres undefined); 0.587
COc1ccc(C#Cc2ccc3c(c2)[C@]2(C(=O)N3)[C@H](C(=O)N3CCCCCCC3)[C@H]3C(=O)O[C@H](c4ccccc4)[C@H](c4ccccc4)N3[C@@H]2c2ccc(O)cc2)cc1; 0.594
C=C(COC)/C(=C/C[C@H](OC(C)=O)c1cccc(OCCO)c1)c1cnc2ccccc2c1; 0.917
O=C(NCC(O)CO)[C@@]1(CCS(=O)(=O)c2ccccc2)COC(c2ccc(OCCCO)cc2)=N1 (some centres undefined); 0.863
CC(C)c1ccc(NN2C(C(O)Cc3ccccc3)C=CC3C(=O)N(c4ccccc4)C(=O)C32)cc1 (centres undefined); 0.751
COCC1C2CC[C@H]3C(OCc4ccc(OC)cc4)OC[C@]4(C)[C@H]3C2=C(CN4C(=O)OC(C)(C)C)[C@H](C)C1COC (some centres undefined); 0.796
COc1ccc(C(=O)Nc2cccc(CN3C(=O)[C@]4(O[C@H](CCn5cc([C@H](O)c6ccccc6)nn5)[C@@H]([Si](C)(C)c5ccc(OC)cc5)[C@@H]4C)c4ccccc43)c2)cc1; 0.169
CN(C)CCCC[C@@H]1NC(=O)[C@@H]2C[C@H](C(=O)O)[C@H](c3cccc(OCCO)c3)N2C1=O; 0.198
Cc1cccc([C@H]2C[C@H]3C(I)=C[C@@H]2C(=O)[C@]32CO2)c1; 0.0705
CCCCCN1CC=CC23O[C@@H]4C=CCOC(=O)[C@@H]4[C@H]2C(=O)N(CCO)[C@@H]3C1=O (some centres undefined); 0.907
CC1CC/C=C\[C@H]2OC34C=CCN(C(C)(C)C)C(=O)[C@H]3N(C(CO)C(C)C)C(=O)[C@@H]4C2C(=O)O1 (some centres undefined); 0.867
COCC1=C2[C@@H](CCc3ccccc3)OB(O)C[C@@H]2[C@@H]2C(=O)N(C)C(=O)[C@@H]2C1; 0.21
O=C1OCC=C[C@H]2OC34C=CCN(c5ccc6ccccc6c5)C(=O)[C@H]3N(CCCCCO)C(=O)[C@@H]4[C@@H]12 (some centres undefined); 0.309
CCCCC(=C=CC[C@H](O)c1ccc(OCCO)cc1)C[C@H](O)c1cc(Cl)cc(Cl)c1O; 0.456
COc1ccc(NC(=O)O[C@H]2[C@@H]3OC(=O)[C@H](Cc4cccc(Br)c4)C/C=C/C[C@@H](Cc4cccc(Br)c4)C(=O)O[C@H]3[C@@H](OC)O[C@@H]2CO)cc1; 0.507
COc1cc(NN2C(C(O)c3ccccc3)C=CC3C(=O)N(C)C(=O)C32)cc(OC)c1OC (centres undefined); 0.781
COCCOC(=O)N1C(=O)[C@@]2(c3cc(C#CC4=CCCCC4)ccc31)[C@H](c1ccc(O)cc1)N1[C@H](c3ccccc3)[C@H](c3ccccc3)OC(=O)[C@H]1[C@@H]2C(=O)NC[C@H](O)c1ccccc1; 0.27
[N-]=[N+]=NCc1ccccc1[C@H]1OC(c2ccc(OCCCO)cc2)=N[C@@]1(Cc1ccccc1)C(=O)NCCN1CCOCC1; 0.696
C=C(CCCC)/C(=C/C[C@H](OC(C)=O)c1ccc(OCCO)cc1)c1cc(C(=O)OC)ccc1OC; 0.663
CC(C)=CCCC(C)=CC(O)C1C=CC2C(=O)N(c3ccccc3)C(=O)C2N1Nc1ccccc1F (centres undefined); 0.662
CN(C)C(=O)[C@@]1(Cc2ccccc2)COC(c2ccc(OCCCO)cc2)=N1; 0.541
COc1ccc([Si](C)(C)[C@H]2[C@H](CCO)O[C@@]3(C(=O)N(Cc4ccccc4)c4ccc(N5C(=O)c6ccccc6Oc6ccccc65)cc43)[C@@H]2C)cc1; 0.532
COC(=O)C1=CC(CCCO)=CC(C)N(Cc2cccc(OC(F)(F)F)c2)C=C1C(=O)OC (centres undefined); 0.8
Nc1cc(Br)ccc1C(=O)O; 0.18
Cc1ccc(S[C@]2(C(=O)NCC(C)C)CC(=O)N(C3Cc4ccccc4C3)[C@@H]2c2ccc(CO)cc2I)cc1; 0.398
COc1ccc(C#Cc2ccc3c(c2)[C@]2(C(=O)N3)[C@H](c3ccc(OCCO)cc3)N3[C@H](c4ccccc4)[C@H](c4ccccc4)OC(=O)[C@H]3[C@@H]2C(=O)N2CCc3cc(OC)c(OC)cc3C2)cc1; 0.438
COCCOC(=O)N1C(=O)[C@@]2(c3cc(C#CC4=CCCCC4)ccc31)[C@H](C(=O)N1CCCCCCC1)[C@H]1C(=O)O[C@H](c3ccccc3)[C@H](c3ccccc3)N1[C@@H]2c1ccc(OCCO)cc1; 0.399

Just for reference, PubChem BioAssay is where these values come from.
